Let's look at some compounds and their measured pKi.
# Tested system: CYP1A2 (Homo sapiens)
pKi: −log10 of the molar value.
Assay metric: pKi

{"columns": ["Compound", "Observed result"],
 "data": [
  ["Cc1cc2cc3c(C)cc(=O)oc3c(C)c2o1 [trioxsalen, reference compound]", 7.00],
  ["CC(C)=CCOc1c2occc2cc2ccc(=O)oc12", 8.15]
]}

---

# Tested system: CYP1A2 (Homo sapiens)
# Experiment: in vitro

{"columns": ["Chemical smiles", "Reading unit", "kinact/KI"],
 "data": [
  ["COc1c2ccoc2c(OC)c2oc(=O)ccc12", "M⁻¹ s⁻¹", 5000]
]}

---

# Tested system: CYP1A2 (Homo sapiens)
Assay metric: IC50 (µM)

{"columns": ["Compound", "Assay metric", "Observed result"],
 "data": [
  ["O=c1ccc2ccc3occc3c2o1", "IC50", 9.6],
  ["Cc1cc2cc3c(C)cc(=O)oc3c(C)c2o1 [trioxsalen, reference compound]", "IC50", 0.79],
  ["COc1c2ccoc2c(OC)c2oc(=O)ccc12", "IC50", 0.46],
  ["CC(C)=CCOc1c2occc2cc2ccc(=O)oc12", "IC50", 0.02]
]}

---

# Tested system: CYP1A2 (Homo sapiens)
# Sequence (P05177 1-516): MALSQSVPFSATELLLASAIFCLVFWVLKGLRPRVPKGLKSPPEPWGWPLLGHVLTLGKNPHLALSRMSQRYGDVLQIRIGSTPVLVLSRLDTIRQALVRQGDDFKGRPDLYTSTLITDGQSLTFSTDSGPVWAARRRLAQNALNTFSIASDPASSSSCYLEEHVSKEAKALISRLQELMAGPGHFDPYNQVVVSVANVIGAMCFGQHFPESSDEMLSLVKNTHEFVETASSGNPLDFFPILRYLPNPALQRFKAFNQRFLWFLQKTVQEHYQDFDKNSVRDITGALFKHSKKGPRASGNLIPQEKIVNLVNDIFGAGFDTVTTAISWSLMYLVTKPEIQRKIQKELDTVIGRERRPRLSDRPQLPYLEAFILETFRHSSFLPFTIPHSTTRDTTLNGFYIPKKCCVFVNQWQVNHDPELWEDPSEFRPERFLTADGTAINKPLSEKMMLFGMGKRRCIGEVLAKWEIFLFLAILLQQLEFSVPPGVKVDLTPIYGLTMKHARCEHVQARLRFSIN
# Experiment: in vitro

{"columns": ["Chemical smiles", "KI (inactivation) / µM"],
 "data": [
  ["COc1c2ccoc2c(OC)c2oc(=O)ccc12", 1.2]
]}
